B1: HESX1 (parent)
chain: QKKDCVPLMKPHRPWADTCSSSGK

variants of: B1; assay: protein stability index of a GFP-peptide fusion (GPS, HEK-293T) (PSI 1-6); higher = more stable; details: c terminus: a fixed tail appended;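 note: lentivirally expressed fusions sorted by FACS into six bins by GFP to DsRed ratio, PSI derived from sequencing read proportions per bin multiplied by bin number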
REPORTED ENDPOINT: protein stability index
Just the number, please.

Would you please look over these solved cases?
{"SEQUENCE CODE": "MKKDCVPLMKPHRPWADTCSSSGK [Q1M]", "protein stability index": 3.03}
{"SEQUENCE CODE": "QKKDCVPLMKDHRPWADTCSSSGK [P11D]", "protein stability index": 3.96}
{"SEQUENCE CODE": "QKKKCVPLMKPHRPWADTCSSSGK [D4K]", "protein stability index": 2.89}

Next variant, please.
Return protein stability index (reported value) for this variant: QKKDCVPLMKPHRPWAQTCSSSGK [D17Q] 3.89
